Test system: SK-MEL-2
experimental-details: NCI tumour cell line growth inhibition, 48 h
Active and inactive are the calls of the source. No stated cut-off is given here; in the data, active = GI50 up to about 1.1 µM and inactive = higher.

| compound | GI50 |
| --- | --- |
| COc1ccc2c(c1)OCC1(O)Cc3ccccc3OC21 (stereo unspecified) | > 100 µM (inactive) |
| NC1=NS(=O)(=O)Nc2nc(-c3ccccc3)c(-c3ccccc3)nc21 | > 100 µM (inactive) |
| CCSC1=N/C(=C\c2ccccc2O)C(Nc2ccc(C)cc2)=N1 | 19.6 µM (inactive) |
| Cc1ccc(S(=O)(=O)N2c3ccccc3[C@H]3CCC=C[C@H]32)cc1 | 4.58 µM (inactive) |
| COc1cc(C2(O)c3ccccc3C3=NCCN32)cc(OC)c1OC (stereo unspecified) | > 100 µM (inactive) |
| O=C1C(=C(C(F)(F)Cl)C(F)(F)Cl)C2CCC1C2 (stereo unspecified) | 1.78 µM (inactive) |
| COc1ccc2c(c1)NC1(CCN(CCCC(=O)c3ccc(F)cc3)CC1)N=N2 | 17.9 µM (inactive) |
| CN(C)C(=N)NC(=S)N(C)C | > 100 µM (inactive) |
| NCCC(=O)NC(Cc1c[nH]cn1)C(=O)O (stereo unspecified) | > 100 µM (inactive) |
| Nc1nc(-c2cccc([N+](=O)[O-])c2)cc(-c2cc(-c3cccc([N+](=O)[O-])c3)nc(N)n2)n1 | > 100 µM (inactive) |
| CN1CC(c2ccccc2)=CC2=C1C=CC(=N)/C2=N\N | 48.2 µM (inactive) |
